System: OVCAR-4
method notes: NCI tumour cell line growth inhibition, 48 h
Active and inactive are the calls of the source. Rule as the data show it: active = GI50 up to about 1.1 µM and inactive = higher.
Your answer must be one of the following: active, inactive

COC1OC(C)/C(=N/O)C2OC(C)(C)OC12 (stereo not given) :: inactive
CCCCCC(=O)Nc1nc(O)c2[nH]cnc2n1 :: inactive
N#CC(C#N)/N=N/c1ccc(-c2nc3ccccc3[nH]2)cc1 :: inactive
CCc1n[nH]c(=O)n1/N=C/c1ccc(/C=N/n2c(CC)n[nH]c2=O)cc1 :: inactive
O=C(O)[C@@H](NS(=O)(=O)c1ccc2ccccc2c1)c1ccccc1 :: inactive

Q: // return assay outcome for CNC(=O)OCc1nc(SC2CCCCO2)n(C)c1COC(=O)NC (stereo not given)
Result: inactive

Q: Just curious, what result did CCCS(=O)OC1C(C2COC(C)(C)O2)OC2OC(C)(C)OC21 (stereo not given) get here?
Result: inactive

Q: Per the records of this test, what outcome belongs to C[Si](C)(C)OC1c2[nH]c3ccccc3c2CN2C(=O)CCC12 (stereo not given) ?
Result: inactive

Q: Could you please tell me the result logged for COC(=O)C1(CCC(C)=O)CCCCCC1=O (stereo not given) in this assay?
Result: inactive

Q: Given COc1cc(C2SCC(=O)N2c2ccc(-c3ccc(-n4c(-c5ccccc5)nc5ccccc5c4=O)cc3)cc2)cc(OC)c1OC (stereo not given) , state the outcome it received in this test.
Result: inactive

Q: Identify the outcome logged in this assay for the compound shown: "Oc1c(CNCCCN2CCCC2)cc(Cl)c2cccnc12"
Result: inactive

----------
Test system: HT-29
method notes: NCI tumour cell line growth inhibition, 48 h
Active and inactive are the calls of the source. No stated cut-off is given here; in the data, active = GI50 up to about 1.1 µM and inactive = higher.
Quick list: GI50 per entry.

Q: Consider the compound "C1C2CC3CC1CC(c1nn4c(C56CC7CC(CC(C7)C5)C6)nnc4s1)(C2)C3" and give its measured GI50.
Result: > 100 µM (inactive)

Q: Which GI50 value belongs to CCCCc1ccc(Nc2nc(Cl)c3c(ncn3C3CC(Oc4ccc(C)cc4)C(COc4ccc(C)cc4)O3)n2)cc1 (stereo unspecified) ?
Result: > 100 µM (inactive)

----------
System: DMS-114
method notes: NCI tumour cell line growth inhibition, 48 h
Activity calls are given as the source filed them. Cut-off read from the data, not from the text of the source: active = GI50 up to about 1.1 µM and inactive = higher.
Respond only with the outcome that fits, drawn from 1 (yes) (active), 0 (no) (inactive)

Worked set:
CC(=O)O[C@H]1C(=O)[C@@]2(C)C([C@H](OC(=O)c3ccccc3)[C@]3(O)C[C@H](OC(=O)[C@H](O)[C@@H](NC(=O)c4ccc(Cl)cc4)c4ccccc4)C(C)=C1C3(C)C)C1(OC(C)=O)CO[C@@H]1C[C@@H]2O (some centres undefined) :: 1 (yes)
C#Cc1cccc(N2C(=O)CC(=P(c3ccccc3)(c3ccccc3)c3ccccc3)C2=O)c1 :: 0 (no)
NCCCOCC(=O)O :: 0 (no)
Cc1cc(NS(=O)(=O)c2ccc(Nc3c4ccccc4nc4c(C(=O)Nc5ccc(S(=O)(=O)N=C(N)N)cc5)ccc(Cl)c34)cc2)no1 :: 0 (no)
CC(C)CCCC(C)C1CCC2C3CC([N+](=O)[O-])=C4CC(O)CCC4(C)C3CCC12C (centres undefined) :: 0 (no)

Consider the record given below.
Q: In this assay, the call recorded for "c1cnn(CN(Cn2cccn2)Cn2cccn2)c1" was what?
Result: 0 (no)

----------
System: UO-31
method notes: NCI tumour cell line growth inhibition, 48 h
Active and inactive are the calls of the source. Cut-off read from the data, not from the text of the source: active = GI50 up to about 1.1 µM and inactive = higher.
Choose one outcome from this list and give only that: active, inactive

CCN(CC)CCn1c2ccccc2c(=O)c2c(O)ccc(O)c21 :: inactive
O=c1cc(-c2ccccc2)oc2ccc(Cl)cc12 :: inactive
CC(=O)OCC1OC(Nn2c(=O)[nH]c3ccccc3c2=O)C(OC(C)=O)C(OC(C)=O)C1OC(C)=O (stereo not drawn) :: inactive

Q: Please indicate how the test categorized "O=c1[nH]c2ccccc2c2nc3ccccc3n12" .
Result: inactive

Q: For this compound, state the assay outcome: COc1ccc(OC)c(SC(CC(=O)c2ccccc2)c2ccccc2)c1 (stereo not drawn)
Result: inactive
